Collected pKd values appear next to each entry.
# system tested: T1, EphA2 ligand binding domain (EphA2 LBD), residues 28-200 (UniProt P29317 28-200)
# T1 construct: range 28-200; Expressed in E. coli; also called soluble EphA2 LBD; soluble monomeric EphA2 LBD
# T1 sequence (P29317 other isoform, or with tags, fused parts or gaps limits assumed, form in doubt): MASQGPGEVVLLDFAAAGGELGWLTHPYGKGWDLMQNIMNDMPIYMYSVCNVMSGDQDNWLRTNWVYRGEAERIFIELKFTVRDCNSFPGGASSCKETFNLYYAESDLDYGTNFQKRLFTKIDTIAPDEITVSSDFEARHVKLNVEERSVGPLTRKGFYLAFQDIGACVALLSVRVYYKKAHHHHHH
# measurement protocol: ITC, soluble EphA2 LBD and peptide
pKd: −log10 of the molar value. Where no end group is shown, it is not given here. [ ]: non-standard residue; d: D form. βAla = NCCC(=O)O
readout label: pKd

binder	readout label	value measured
CGAWLAYPDSVPYRPK (also: N-terminally disulfide-linked homodimer, disulfide at 1, other end not in the chain, also called dimer (5); dimeric peptide (5)) [CGA-WLA-YRPK dimer (N-ter)]	pKd	7.68
CGAWLAYPDSVPYR (also: homodimer: N-terminal Cys of two chains joined by disulfide, N-terminally disulfide-linked homodimer made from monomer (15*); also called dimer (4)) [CGA-WLA-YR dimer (N-ter)]	pKd	6.98
[βAla]WLAYPDSVPYRPKC (also: homodimer, disulfide at 15, other end not in the chain, C-terminally disulfide-linked homodimer made from monomer (19*); also called dimer (2); dimeric peptide (2)) [βA-WLA-YRPKC dimer (C-ter)]	pKd	6.42
[βAla]WLAYPDSVPYGSGC (also: homodimer, disulfide at 15, other end not in the chain, C-terminally disulfide-linked homodimer made from monomer (9*); also called dimer (1); dimeric peptide (1)) [βA-WLA-YGSGC dimer (C-ter)]	pKd	5.54
